Please provide measured IC50 for the entries that follow.
test system: HCoV-229E; assay: microbe, parasite or virus in culture; type: cell-based, Homo sapiens sapiens; settings: Human coronavirus 229E, Huh7.5, read-out: IC50 (µM), HCoV 229E
Give the value, in units of µM, as a plain number.

Please fill in: IC50 reported for CC(C(O)c1ccccc1)N(C)CC=C1c2ccccc2CCc2ccccc21 (stereo not shown) [RFM-010-015-2] = 1.96

Recorded result, CN(C)C(=O)NC1(c2ccccc2)CCN(CCC[C@]2(c3ccc(Cl)c(Cl)c3)CCCN(C(=O)c3ccccc3)C2)CC1 [RFM-003-485-5] , IC50: 1.64

In plain terms, CC(=O)[C@]1(O)Cc2c(O)c3c(c(O)c2[C@@H](O[C@H]2C[C@H](N)[C@H](O)[C@H](C)O2)C1)C(=O)c1ccccc1C3=O [RFM-000-458-0] has a documented IC50 of 1.55

CCCN(CCC)C(=O)C(Cc1ccc(OCCCN2CCN(C)CC2)cc1)NC(=O)c1cccc(Cl)c1 (stereo not shown) [RFM-012-155-1] has a reported IC50 of 3.67

Sure, the documented IC50 for CN1CCN(CC/C=C2/c3ccccc3Sc3ccc(S(=O)(=O)N(C)C)cc32)CC1 [RFM-003-384-1] is 1.22

// sample CCOC(=O)/C=C/[C@H](C[C@@H]1CCNC1=O)NC(=O)[C@@H](CC(=O)[C@@H](NC(=O)c1cc(C)on1)C(C)C)Cc1ccc(F)cc1 [RFM-010-414-3] , its IC50 was 4.19

Entry Oc1ccc(Nc2ccnc3cc(Cl)ccc23)cc1CN1CCCC1 [RFM-010-841-8] ; IC50 = 1.41

###

tested on: HCoV-229E; experiment: Twelve-step dose titration against HCoV-229E infection on Huh-7.5/F-Luc/Cas9 cells; format: cell-based, Homo sapiens sapiens; details: twelve-step 1:3 dilutions, n = 3
READOUT_NAME: pIC50
Hey, just a heads up that pIC50 is the negative log base 10 of the concentration in molar.

The compound listed as F/C(COc1ccc2c(c1)[nH]c1ccccc12)=C1/CN2CCC1CC2 [YM-53601] has a reported pIC50 of 5.79

###

So I've got a bunch of compounds here, and I need their viability values.
test: in vitro; conditions: Anti-SARS-CoV-2 screening on Calu-3 cells: viability [% of control], Calu-3 cells
# output: number + unit

Noted for Cc1cc(OCCN(C)C)c(C(C)C)cc1OC(=O)CC(C)(C)SN=O : its viability reads 88.9%

viability reading for Oc1ccc2c(c1)CC[C@H](c1ccccc1)[C@@H]2c1ccc(OCCN2CCCC2)cc1 : 92.8%

Recorded result, COCCN1CCC(N(Cc2ccc(-c3ccc(C(F)(F)F)cc3)cc2)C(=O)c2ccco2)CC1 , viability: 94.4%

Note to self: viability recorded for CCCN(CCC)C(=O)C(Cc1ccc(OCCCN2CCN(C)CC2)cc1)NC(=O)c1ccc(Br)cc1 (stereo not shown) was 99.3%

Given item CC(=O)N(C)C1(c2ccccc2)CCN(CCC[C@]2(c3ccc(Cl)c(Cl)c3)CCCN(C(=O)c3ccccc3)C2)CC1 , the value recorded as its viability is 113%

According to the records, this compound CNCc1ccc(OC)c([C@@]2(N3CCC[C@H]3c3ncco3)C(=O)N(S(=O)(=O)c3ccc(OC)cc3)c3ccc(Cl)cc32)c1 displays viability of 95.4%

Value of measured viability for the entry CCCN(CCC)C(=O)C(Cc1ccc(OCCCN2CCN(C)CC2)cc1)NC(=O)c1ccc(Cl)cc1 (stereo not shown) : 103%

###

Provide the recorded SI (CC50/IC50) for the entries that follow.
test system: SARS-CoV-2; details: Calu-3 cells, CC50 from LDH assay / IC50 from qRT-PCR

Tested on SARS-CoV-2: CCC(CC)COC(=O)[C@H](C)N[P@](=O)(OC[C@H]1O[C@@](C#N)(c2ccc3c(N)ncnn23)[C@H](O)[C@@H]1O)Oc1ccccc1 . Observed SI (CC50/IC50): > 6.76

Query CC/C(=C(/C#N)c1ccc(OCCN(CC)CC)cc1)c1ccc(Cl)cc1 on SARS-CoV-2; SI (CC50/IC50) returned: 2.09

Form: item CC1(C)CC[C@]2(C(=O)O)CC[C@]3(C)[C@H](C(=O)C=C4[C@@]5(C)C=C(C#N)C(=O)C(C)(C)[C@@H]5CC[C@]43C)[C@@H]2C1 [Bardoxolone, reference compound] ; test system SARS-CoV-2; SI (CC50/IC50): 3.90

Value sought: SI (CC50/IC50), system SARS-CoV-2, item Cc1cc(-c2nc3cc(F)ccc3s2)ccc1NC(=O)[C@@H](N)CCCCN [Phortress, reference compound] . Result: 1.49

For CC1(C)CC[C@]2(NC(=O)C(C)(F)F)CC[C@]3(C)[C@H](C(=O)C=C4[C@@]5(C)C=C(C#N)C(=O)C(C)(C)[C@@H]5CC[C@]43C)[C@@H]2C1 on SARS-CoV-2, measured SI (CC50/IC50) was > 8.66

Given the compound C#CCOc1ccc2c(c1)c(-c1ccc(C(C)C)cc1)nc(=O)n2Cc1ccc(Br)cc1 [AXT-914, reference compound] and test system SARS-CoV-2, the measured SI (CC50/IC50) is > 7.08

// assay SARS-CoV-2, entry CN1CC[C@H](c2c(O)cc(O)c3c(=O)cc(-c4ccccc4Cl)oc23)[C@H](O)C1 , SI (CC50/IC50) value = 2.21

###

assay: in vitro; settings: human
READOUT_NAME: viability at 5 µM

Value of measured viability at 5 µM for the entry CCc1ccc2c(c1)N(CC(C)CN(C)C)c1ccccc1S2 (stereo not drawn) [RFM-012-636-3] : 138%

Lookup result for OCCN1CCN(CCCN2c3ccccc3Sc3ccc(C(F)(F)F)cc32)CC1 [RFM-001-668-2] ; measured viability at 5 µM: 154%

Looking up CN1CCN(CC/C=C2/c3ccccc3Sc3ccc(S(=O)(=O)N(C)C)cc32)CC1 [RFM-003-384-1] , I found its viability at 5 µM recorded as 148%

// viability at 5 µM value for CCN1[C@@H]2CC[C@H]1C[C@@H](OC(c1ccccc1)c1ccccc1)C2 [RFM-011-925-5] : 136%

Measured viability at 5 µM of CCCN(CCC)C(=O)C(Cc1ccc(OCCCN2CCN(C)CC2)cc1)NC(=O)c1cccc(Cl)c1 (stereo not drawn) [RFM-012-155-1] : 126%

Lab note: CC(OCCN1CCCCCC1)(c1ccccc1)c1ccc(Cl)cc1 (stereo not drawn) [RFM-000-944-9] gave viability at 5 µM of 146%

# viability at 5 µM of COC(=O)C1=C(C)NC(C)=C(C(=O)OCCCN2CCC(c3ccccc3)(c3ccccc3)CC2)[C@@H]1c1cccc([N+](=O)[O-])c1 [RFM-003-515-4] = 136%

Recorded viability at 5 µM (compound CN(C)C(=O)NC1(c2ccccc2)CCN(CCC[C@]2(c3ccc(Cl)c(Cl)c3)CCCN(C(=O)c3ccccc3)C2)CC1 [RFM-003-485-5] ): 172%

Form: compound = CN(C)CCOC(c1ccccc1)c1ccc(Br)cc1 (stereo not drawn) [RFM-010-846-3] ; viability at 5 µM = 157%

viability at 5 µM reported for this compound CN1C[C@H](CNC(=O)OCc2ccccc2)C[C@@H]2c3cccc4c3c(cn4C)C[C@H]21 [RFM-005-941-6] : 163%

Input c1ccc2c(c1)Sc1ccccc1N2CC1CN2CCC1CC2 (stereo not drawn) [RFM-000-842-4] . Output viability at 5 µM: 166%

Field viability at 5 µM (entry CN[C@@H](CC(C)C)C(=O)NCCCC(c1ccc(F)cc1)c1ccc(F)cc1 [RFM-010-013-0] ) reads 136%

Lab note: measured viability at 5 µM of CC(C)NCC(O)COc1ccc(CC(=O)OCCC23CC4CC(CC(C4)C2)C3)cc1 (stereo not drawn) [RFM-010-929-5] was 122%

Reported viability at 5 µM of CNCCC(Oc1cccc2ccccc12)c1cccs1 (stereo not drawn) [RFM-000-319-0] : 143%

The value of viability at 5 µM measured for the compound COc1cccc(CCc2ccccc2OCC[C@@H]2C[C@@H](O)CN2C)c1 [RFM-011-187-5] turned out to be 131%

###

Could you please report measured pIC50 for the items listed next?
system: HCoV-229E; assay: microbe, parasite or virus in culture; assay type: cell-based, Homo sapiens sapiens; conditions: HCoV 229E infection, dose series, max. dose 5 µM; read-out: IC50
Counter-ions that a name gives are not always drawn.
Please report pIC50 as the negative decimal logarithm of the molar concentration, giving only the number.

pIC50 for COC(=O)C1=C(C)NC(C)=C(C(=O)OCCCCNC[C@H](O)COc2ccccc2)C1c1cccc([N+](=O)[O-])c1 (some centres unmarked) is 6.09

Reported pIC50 ( Oc1ccc2c(c1)CC[C@H](c1ccccc1)[C@H]2c1ccc(OCCN2CCCC2)cc1 [Lasofoxifene tartrate] ) = 6.27

Summary for this molecule, CC(C)(O)c1ccc2c(c1)/C(=C/CCN1CC[C@](O)(c3ccc(Cl)cc3)C(C)(C)C1)c1cccnc1CO2 : pIC50 is 6.02

Recorded pIC50 (molecule CN(C)CCC(Sc1cccc2ccccc12)c1cccs1 (centres unmarked) ): 6.03

Entry under test: CC1(C)CC[C@]2(NC(=O)C(C)(F)F)CC[C@]3(C)[C@H](C(=O)C=C4[C@@]5(C)C=C(C#N)C(=O)C(C)(C)[C@@H]5CC[C@]43C)[C@@H]2C1 . Its pIC50 was 7.10

Entry C=C1C[C@@H]2CC[C@@]34C[C@H]5O[C@H]6[C@@H](O3)[C@H]3O[C@H](CC[C@@H]3O[C@H]6[C@H]5O4)CC(=O)C[C@@H]3[C@@H](OC)[C@@H](C[C@H](O)CN)O[C@H]3C[C@H]3O[C@@H](CC[C@@H]1O2)C[C@@H](C)C3=C [Eribulin (mesylate)] ; pIC50 = 7.30

In plain terms, c1ccc(CCCC(Oc2ccccc2OCc2ccccc2)C2=NCCN2)cc1 (centres unmarked) has a documented pIC50 of 6.28

pIC50 reported for this molecule CC(C)c1ccc2c(c1)C(N1CCN(CCO)CC1)Cc1ccc(F)cc1S2 (centres unmarked) [isofloxythepin] : 6.10

Item: CC(C)c1ccc(C(=O)c2cccs2)c(SCCCCCCCCN(C)C)n1 | pIC50: 6.48

Lookup result for COc1cc(C(C)=O)ccc1OCCCN1CCC(C(O)(c2ccc(F)cc2)c2ccc(F)cc2)CC1 ; measured pIC50: 6.00

What the record says about CN(C)CCCN1c2ccccc2Sc2ccc(Cl)cc21 : pIC50 is 6.11

pIC50 reported for this molecule CC[C@H](NC(=O)[C@H](CS(=O)(=O)CC1CC1)N[C@@H](c1ccc(F)cc1)C(F)(F)F)C(=O)C(=O)NC1CC1 [VBY-825, reference compound] : 6.68

Recorded pIC50 (molecule COc1ccc2cc(S(=O)(=O)N[C@H](CC(=O)N[C@H](Cc3ccc(CN4[C@H](C)CCC[C@@H]4C)cc3)C(=O)N(C)C(C)C)c3ccc4c(c3)OCO4)ccc2c1 ): 6.28

// pIC50 lookup, molecule = Cc1cccc(/C=N/Nc2cc(N3CCOCC3)nc(OCCc3ccccn3)n2)c1 [Target 16/Apilimod mesilate] , result: 6.70

The reported pIC50 of the molecule CN(C)C(C)(C)CSc1nc2ccccc2cc1-c1ccccc1 was 6.28

Input Cc1c(-c2ccccc2)oc2ccc(OCCCCCCN3CCC(O)CC3)cc2c1=O . Output pIC50: 5.97

The molecule listed as CN1CC[C@H](c2c(O)cc(O)c3c(=O)cc(-c4ccccc4Cl)oc23)[C@H](O)C1 shows pIC50 equal to 6.85

Lab note: measured pIC50 of C#CCOc1ccc2c(c1)c(-c1ccc(C(C)C)cc1)nc(=O)n2Cc1ccc(Br)cc1 [AXT-914, reference compound] was 7.30

Lookup result for COc1cc2c(cc1N1C[C@@H](C)N[C@@H](C)C1)N(C(=O)c1ccc(-c3ccc(-c4noc(C)n4)cc3C)cc1)CC2 ; measured pIC50: 6.24

Entry under test: CC/C(=C(\c1ccc(O)cc1)c1ccc(OCCNC)cc1)c1ccccc1.Cl [Endoxifen (hydrochloride)] . Its pIC50 was 6.25

# molecule Cc1ccc(Sc2ccccc2C2CCNCC2)cc1 ; its pIC50 = 6.17

Entry COc1cc(/C=C/C=C/C(=O)NCCN2CCC(OC(c3ccccc3)c3ccccc3)CC2)ccc1O , pIC50 reported as 5.95

# pIC50 of COc1cc(F)ccc1-c1cc(Nc2cc(CS(C)(=N)=O)ccn2)ncc1F (single isomer, unassigned; (+)) [(+)-BAY-1251152, reference compound] = 6.89

Field pIC50 (entry CN(C)CCCOC(CCCCc1ccccc1)c1ccccc1 (centres unmarked) ) reads 6.11

// sample C1=C(c2ccc(CN3CCCCC3)cc2)N2CCN=C2c2ccccc21 , its pIC50 was 6.12

For CCN(CC)CCCN1c2ccccc2Sc2ccc(Cl)cc21.Cl [Chlorproethazine HCl] the molecule record lists pIC50 as 6.08

Field pIC50 (entry CCNCc1cncc(-c2ccc3[nH]nc(-c4nc5c(F)cc(F)cc5[nH]4)c3c2)c1C ) reads 6.11

The value of pIC50 measured for the molecule O=S(=O)(Nc1ccc(CCNC[C@H](O)c2cccnc2)cc1)c1ccc(-c2nc(-c3ccc(C(F)(F)F)cc3)cs2)cc1 turned out to be 6.11

# pIC50 of C=CCc1c(OCCCNCc2ccccc2)ccc2c1[nH]c1ccccc12 = 6.14
